Target: Kelch-like ECH-associated protein 1 (Homo sapiens) (UniProt Q14145)
Sequence (Q14145 whole entry, looked up, the tested form may be a part): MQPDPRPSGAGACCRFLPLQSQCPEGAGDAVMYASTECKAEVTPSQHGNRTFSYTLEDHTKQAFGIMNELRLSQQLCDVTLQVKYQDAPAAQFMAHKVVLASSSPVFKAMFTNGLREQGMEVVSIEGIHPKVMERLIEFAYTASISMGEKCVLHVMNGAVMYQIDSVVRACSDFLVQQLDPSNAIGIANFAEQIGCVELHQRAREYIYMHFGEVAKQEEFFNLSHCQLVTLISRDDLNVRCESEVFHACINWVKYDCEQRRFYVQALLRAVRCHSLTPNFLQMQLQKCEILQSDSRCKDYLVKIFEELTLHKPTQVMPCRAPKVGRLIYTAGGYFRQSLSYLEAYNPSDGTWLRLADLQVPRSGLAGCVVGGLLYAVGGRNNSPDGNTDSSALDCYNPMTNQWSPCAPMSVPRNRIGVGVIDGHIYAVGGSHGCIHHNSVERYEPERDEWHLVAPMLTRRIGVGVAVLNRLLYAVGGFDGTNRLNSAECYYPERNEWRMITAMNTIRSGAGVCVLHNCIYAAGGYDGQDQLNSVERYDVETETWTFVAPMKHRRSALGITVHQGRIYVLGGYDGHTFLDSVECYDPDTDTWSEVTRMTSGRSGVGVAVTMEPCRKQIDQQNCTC
Experiment: Keap1-Nrf2 protein-protein interaction inhibitors, primary screen, biochemical, fluorescence polarization, single point (AID 504523);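 also: human Keap1 Kelch domain with fluorescein labeled Nrf2 9mer peptide probe; 0% = neutral control wells and 100% = peptide positive control; higher means more block of Keap1 binding to Nrf2 peptide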
Settings: Keap1 Kelch-Nrf2 peptide fluorescence polarization, 1536-well; at 9.4 µM; stronger effect = higher value
Out of some 340,000 compounds screened, about 490 (0.14%) were called active. For the sample, actives were picked, then their nearest neighbours and some compounds at random.
# reported inhibition; entries follow
Dear colleague, please return just the value in %, with no unit written.

molecule: O=C(Nc1cccc(S(=O)(=O)N2CCOCC2)c1)C12CC3CC(CC(C3)C1)C2
result units: %
numeric result: 1.77

molecule: O=C(NCc1cccs1)C1CCN(S(=O)(=O)c2ccc3c(c2)OCCO3)CC1
result units: %
numeric result: -2.29

Data request: Can you share its inhibition? I mean this molecule: O=C(OCC(=O)N(CCc1ccccc1)Cc1ccccc1)c1ccccc1[N+](=O)[O-]
Data returned: 1

Data request: Can you share its inhibition? I mean this molecule: O=C1Nc2ccc([N+](=O)[O-])cc2C1=Nc1cccc(CO)c1
Data returned: 2.07

Data request: Can you share its inhibition? I mean this molecule: CC(=O)NS(=O)(=O)c1ccc2c(c1)Cc1cc(S(=O)(=O)NC(C)=O)ccc1-2
Data returned: -4.15
